The reported measurements were obtained from patent US8791267B2.

Target: PDE4B (Homo sapiens, UniProt Q07343)
Sequence (Q07343 whole entry): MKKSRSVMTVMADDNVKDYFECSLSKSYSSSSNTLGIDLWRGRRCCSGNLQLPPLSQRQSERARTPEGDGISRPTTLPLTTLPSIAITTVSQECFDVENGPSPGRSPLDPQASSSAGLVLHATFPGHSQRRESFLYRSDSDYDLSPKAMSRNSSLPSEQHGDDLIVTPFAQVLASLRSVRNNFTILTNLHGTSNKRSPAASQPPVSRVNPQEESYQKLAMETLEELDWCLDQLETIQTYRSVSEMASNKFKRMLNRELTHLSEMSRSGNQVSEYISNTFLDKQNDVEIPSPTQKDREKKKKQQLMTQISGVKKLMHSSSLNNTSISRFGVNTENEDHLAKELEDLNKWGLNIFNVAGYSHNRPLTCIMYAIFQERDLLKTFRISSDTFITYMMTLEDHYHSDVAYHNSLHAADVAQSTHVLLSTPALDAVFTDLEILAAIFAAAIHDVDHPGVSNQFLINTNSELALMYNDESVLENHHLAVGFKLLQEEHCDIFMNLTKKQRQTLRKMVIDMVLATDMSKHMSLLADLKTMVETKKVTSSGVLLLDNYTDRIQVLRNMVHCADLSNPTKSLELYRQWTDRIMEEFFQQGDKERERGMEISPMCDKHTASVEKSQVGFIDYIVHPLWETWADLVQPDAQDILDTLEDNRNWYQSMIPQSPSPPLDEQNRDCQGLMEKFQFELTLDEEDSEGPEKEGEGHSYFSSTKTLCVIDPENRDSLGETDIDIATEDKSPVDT
Assay: In-vitro assay for PDE4 enzymes, real-time enzyme-coupled spectrophotometric assay, PDE4B Activity (Table 10)
Assay type: biochemical
Conditions: human PDE4B (hPDE4B), enzyme-coupled spectrophotometric assay; read-out: PDE4B Activity, hPDE4B
pIC50: −log10 of the molar value.
measured-parameter: pIC50

Prompt line: // lookup pIC50 for COc1ccc(Cn2cnc(C(N)=O)c2)c(F)c1-c1cccc(Cl)c1
Response line: > 5.30

Prompt line: Param item: COc1ccc(Cn2ccc3ccccc32)cc1-c1cccc([N+](=O)[O-])c1
Response line: > 5.30

Prompt line: Param item: COc1ccc(CN2C(=O)CCCC2=O)cc1-c1cccc([N+](=O)[O-])c1
Response line: 4.70 to 5.30

Prompt line: Param item: COc1ccc(Cc2cccnc2)c(O)c1-c1cccc([N+](=O)[O-])c1
Response line: > 5.30

Prompt line: Param item: COc1ccc(Cc2ccc(N3CCNC3=O)nc2)c(F)c1-c1cccc(C(C)=O)c1
Response line: > 5.30
